activation by entry:
System: CRF-binding protein / CRF receptor 2 complex (human)
Assay: agonists of CRF-BP/CRF-R2 complex, primary screen, cell-based, HEK293, calcium dye fluorescence, uHTS (AID 588473);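 also: plate controls were neutral control wells without compound for no effect and CRF at EC100 for full effect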
Settings: calcium dye fluorescence (FLIPR), at 13.2 µM, active compounds read high, percent of saturating CRF peptide response
In all, about 350,000 compounds went through this assay and about 1,600 (0.46%) were called active. The full list was thinned out, with actives kept by preference.
Give your result in % as a bare value.

Some solved entries appear below for comparison.
COMPOUND: Cc1ccc(NC(=O)COc2ccc(/C=N\NC(=O)c3cccnc3)cc2)cc1C
UNITS: %
activation: 0.37
//
COMPOUND: CCN(CC)S(=O)(=O)c1ccc(OC)c(NC(=O)CCc2c(C)noc2C)c1
UNITS: %
activation: -0.44
//
COMPOUND: CCOc1cc(/C=C(\C#N)c2nc(-c3cccs3)c(NC(C)=O)s2)ccc1O
UNITS: %
activation: 222
//
COMPOUND: Cc1ccc(S(=O)(=O)N2CCCCC2)cc1NC(=O)c1cccnc1
UNITS: %
activation: 6.52

Q: I'd like to know its activation. The compound in question is COCCCNC(=O)C1CC(=O)N(CCc2ccccc2)C1 (centres undefined)
A: -1.35

Q: Could you share which activation value was measured for `CC/C(=N\O)C(C)(C)/[N+]([O-])=C/c1ccc(Br)cc1` ?
A: 0.05

Q: What does the record list as activation for CCn1cc(CN2CCN(CC(C)(C)C)C(CCO)C2)c2ccccc21 (centres undefined) ?
A: 4.34

----------
Reported activation values for a set of compounds
System: CRF-binding protein / CRF receptor 2 complex (human)
Experiment: agonists of CRF-BP/CRF-R2 complex, primary screen, cell-based, HEK293, calcium dye fluorescence, uHTS (AID 588473);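 also: plate controls were neutral control wells without compound for no effect and CRF at EC100 for full effect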
Conditions: calcium dye fluorescence (FLIPR), at 13.2 µM, active compounds read high, percent of saturating CRF peptide response
The campaign covered roughly 350,000 compounds. About 1,600 (0.46%) were called active. The full list was thinned out, with actives kept by preference.
Supply the numeric figure in %, leaving out any unit text.

Below are worked cases with known answers.
COMPOUND: COc1cc(OC)cc(C(=O)NC(C(=O)N2CCC2)C(C)C)c1 (stereo unspecified)
activation, %: 2.01
--
COMPOUND: CN(C)c1ccc(C=C2C(=O)OC3(CCCC3)OC2=O)cc1
activation, %: 23.8
--
COMPOUND: CC(C)(C)OC(=O)NCCCCCC(=O)N/N=C/c1coc2ccccc2c1=O
activation, %: -5.17
--
COMPOUND: Cc1ccc(NC(=O)CSc2nc(=O)n(CCN(C)C)c3c2CCCC3)c(C)c1
activation, %: -0.4
--
COMPOUND: CN(CC(=O)Nc1ccccc1F)CC(=O)Nc1ccccc1Br
activation, %: -3.49

Q: Please give the measured activation for this compound: `O=C(Nc1cccc2ccccc12)c1onc2c1CCCC2`
A: -2.42

Q: # input compound: COc1cc(OC)cc(C(=O)N[C@H](C(=O)OCC(=O)NC(C)c2ccccc2)C(C)C)c1 (stereo partly specified) ; wanted: its activation
A: 102

Q: Value lookup for activation; key = CC1(C)O[C@H]2CC(=O)OCC23[C@H]2CC[C@@]4(C)[C@H](c5ccoc5)OC(=O)[C@H]5O[C@]54[C@]2(C)C(=O)C[C@@H]13 (stereo partly specified)
A: 1.6

Q: If you can, please state the reported activation value of `COc1ccc(SCCN2CCN(CC(C)C)CCC2=O)cc1` .
A: -0.91

Q: Which measured activation value corresponds to CC1CN(Cc2ccccc2)C(=S)NC1=O (stereo unspecified) ?
A: -2.85

Q: GET /values?readout=activation&item= `CCO[C@H]1OC(C(=O)N2CCN(Cc3ccccc3)CC2)=C[C@@H](c2cn(C(C)=O)c3ccccc23)[C@@H]1CCCO`
A: -0.99

Q: I'd like to know its activation. The compound in question is `CN1C(=O)/C(=C\c2ccc(-c3ccccc3)o2)SC1=S`
A: 177

Q: Value lookup for activation; key = O=C(Nc1ccccc1C(F)(F)F)N1CCCC1c1cccnc1 (stereo unspecified)
A: 0.09

Q: Suppose we examine the compound `Cc1ccc(C(=O)COC(=O)CCCC(=O)NC2CCCCC2)cc1[N+](=O)[O-]` ; what activation value has been reported?
A: 1.32

Q: Recorded activation of COC(=O)C1=C(C(=O)c2ccc(C)cc2)C(c2ccccc2)n2nnnc2N1 (stereo unspecified) , please.
A: -0.02

Q: Request the reported activation associated with `O=C(CCN1C(=O)c2ccccc2C1=O)Nc1cccc(F)c1`
A: -0.06

Q: Form field: reported activation of CC(C(=O)NC1CCS(=O)(=O)C1)N1C(=O)/C(=C/c2ccc(Cl)cc2)SC1=S (stereo unspecified)
A: 0.11

Q: Could you tell me which activation is on file for `Cn1cccc1/C=C1\SC(=S)N(NC(=O)c2ccc(Cl)cc2)C1=O` ?
A: 0.66

Q: Name the reported activation value associated with the compound `COc1cc(N=Cc2c(O)c3ccccc3oc2=O)c(OC)cc1Cl`
A: 66.4

Q: What measured activation goes with `COc1ccc(OCCCn2cccc2/C=C2/C(=N)N3OC(C)=CC3=NC2=O)cc1` ?
A: 4.44

Q: Quick one: activation for COc1cc(OC)cc(C(=O)NCC(=O)OCC(=O)NC(C)CCc2ccccc2)c1 (stereo unspecified) ?
A: -1.06

----------
Test system: CRF-binding protein / CRF receptor 2 complex (human)
Assay: agonists of CRF-BP/CRF-R2 complex, primary screen, cell-based, HEK293, calcium dye fluorescence, uHTS (AID 588473);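 also: plate controls were neutral control wells without compound for no effect and CRF at EC100 for full effect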
Conditions: calcium dye fluorescence (FLIPR), at 13.2 µM, active compounds read high, percent of saturating CRF peptide response
In all, about 350,000 compounds went through this assay and about 1,600 (0.46%) were called active. This is one part of a sample in which actives are shown more often than they occur.
MEASURED PARAMETER: activation (%)
Form entry: value (%) — number only.

The examples below pair each entry with its known result.
COMPOUND: O=C(OCc1cn(-c2ccc(Cl)c(Cl)c2)nn1)c1ccccc1Cl
MEASURED PARAMETER: activation
NUMERIC READOUT: 5.3
--
COMPOUND: NS(=O)(=O)c1ccc(NC(=O)COC(=O)c2c3c(nc4ccccc24)/C(=C\c2ccc4c(c2)OCO4)CCC3)cc1
MEASURED PARAMETER: activation
NUMERIC READOUT: 0.53

Q: Which activation value belongs to `CCN=c1sc(C(=O)Nc2ccccc2)c(C)n1CC` ?
A: -2.99

Q: # query: activation of entry `O=C(CCCN=C1NS(=O)(=O)c2ccccc21)OCC(=O)c1ccc(F)c(F)c1`
A: 62

Q: Quick one: activation for O=C(O)C1OC(C(=O)O)C2C1C(F)(F)C2(F)F (configuration not stated) ?
A: 0.58

----------
Some compounds, each annotated with its measured activation.
System: CRF-binding protein / CRF receptor 2 complex (human)
Assay: agonists of CRF-BP/CRF-R2 complex, primary screen, cell-based, HEK293, calcium dye fluorescence, uHTS (AID 588473);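 also: plate controls were neutral control wells without compound for no effect and CRF at EC100 for full effect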
Conditions: calcium dye fluorescence (FLIPR), at 13.2 µM, active compounds read high, percent of saturating CRF peptide response
In all, about 350,000 compounds went through this assay and about 1,600 (0.46%) were called active. For the sample, actives were picked, then their nearest neighbours and some compounds at random.
Lab book: enter the figure in %, no units written.

COMPOUND: CC(C)(C)SCCNC(=O)c1cccc([N+](=O)[O-])c1
activation / %: -0.01
--
COMPOUND: COc1cccc(N(CC(=O)NC2CCCC2)C(=O)Cn2nnc(-c3ccc(C)cc3)n2)c1
activation / %: -0.55
--
COMPOUND: O=C(NC(=S)NC1CCS(=O)(=O)C1)c1cccc([N+](=O)[O-])c1 (stereo unspecified)
activation / %: 0.96
--
COMPOUND: COc1cc(C)ccc1OCC(=O)OCC(=O)c1ccc[nH]1
activation / %: 2.06
--
COMPOUND: CC(C)(C)Nc1c(-c2cccs2)nc2ccccn12
activation / %: -0.46
--
COMPOUND: CC1CCN(c2ccc3c(c2)S(=O)(=O)c2cc(C(=O)O)ccc2C3=O)CC1
activation / %: 3.35
--
COMPOUND: COc1ccccc1C(=O)NCCC(=O)NC(C)CCc1ccccc1 (stereo unspecified)
activation / %: 0.39
--
COMPOUND: O=C(Nc1ccc2c(c1)OCCO2)C1CCCC1
activation / %: -0.49

Q: I'm curious: which activation was measured for `CCCc1cc(=O)n2[nH]c(SCc3ccccc3)nc2n1` tested on CRF-binding protein / CRF receptor 2 complex (human)?
A: 1.41

Q: For CRF-binding protein / CRF receptor 2 complex (human), provide activation of `Cc1ccc(CNC(=O)c2ccc3c(c2)S(=O)(=O)c2ccccc2C3=O)cc1` please.
A: -0.74

Q: Enter reported activation observed with CRF-binding protein / CRF receptor 2 complex (human) for `CCN(Cc1nc2ccccc2c(=O)[nH]1)Cc1cc(=O)oc2cc(C)c(C)cc12`
A: -0.08
